Please provide measured EC50 for the entries that follow.
Test system: NS5A chimeric genotype 1b Con1 replicon with genotype 4a ED43 strain NS5A gene
ASSAY PROTOCOL: HCV genotype 4a NS5A chimeric replicon assay
Assay type: cell-based
MEASUREMENT CONDITIONS: Hepatitis C virus, 72 h, read-out: 4a (s) (nM)
Description: Evaluation of cell-based anti-HCV activity: Antiviral potency (EC50) was determined using a Renilla luciferase (RLuc)-based HCV replicon reporter assay. […] 72 hours later, cells were lysed and Renilla luciferase activity quantified as recommended by the manufacturer (Promega-Madison, Wis.). […]
The reply should be a number in nM, with the unit left off.

Challenge: Find the recorded EC50 belonging to CC[C@H]1C[C@@H](c2nc3ccc4cc5c(cc4c3[nH]2)OCc2cc(-c3cnc([C@@H]4CC[C@H](C)N4C(=O)[C@@H](NC(=O)OC)C(C)C)[nH]3)ccc2-5)N(C(=O)[C@@H](NC(=O)OC)C2C[C@@H](C)O[C@H](C)C2)C1 (some centres unmarked) [Example AF] and report it.
Response given: 0.005

Challenge: Find the recorded EC50 belonging to COC(=O)N[C@H](C(=O)N1[C@@H](c2nc3ccc4cc5c(cc4c3[nH]2)OCc2cc(-c3cnc([C@@H]4C[C@H](C)[C@H](C)N4C(=O)[C@@H](NC(=O)OC)C4C[C@@H](C)O[C@H](C)C4)[nH]3)ccc2-5)C[C@@H](C)[C@H]1C)C1C[C@@H](C)O[C@H](C)C1 (some centres unmarked) [Example BA] and report it.
Response given: 0.108

----------
System: NS5A chimeric genotype 2a JFH-1 replicon with genotype 2a J6 strain NS5A gene (M31)
ASSAY PROTOCOL: HCV genotype 2a J6 NS5A chimeric replicon assay, transient (t)
Type: cell-based
MEASUREMENT CONDITIONS: Hepatitis C virus, 72 h, read-out: 2a J6 (t) (nM)
Please provide measured EC50 for the entries that follow.
The reply should be a number in nM, with the unit left off.

Challenge: Find the recorded EC50 belonging to COC(=O)N[C@H](C(=O)N1[C@@H](C)CC[C@H]1c1ncc(-c2ccc3c(c2)COc2cc4c(ccc5nc([C@@H]6CC[C@H](C)N6C(=O)[C@@H](NC(=O)OC)C6CCOCC6)[nH]c54)cc2-3)[nH]1)C1CCOCC1 [Comp 6, reference compound] and report it.
Response given: 0.012

Challenge: Find the recorded EC50 belonging to COC[C@H]1C[C@@H](c2ncc(-c3ccc4c(c3)COc3cc5c(ccc6nc([C@@H]7CC[C@H](C)N7C(=O)[C@@H](NC(=O)OC)C(C)C)[nH]c65)cc3-4)[nH]2)N(C(=O)[C@@H](NC(=O)OC)C2C[C@@H](C)O[C@H](C)C2)C1 (some centres unmarked) and report it.
Response given: 0.028

Challenge: Find the recorded EC50 belonging to COC(=O)N[C@H](C(=O)N1[C@@H](C)CC[C@H]1c1ncc(-c2ccc3c(c2)COc2cc4c(ccc5nc([C@@H]6CC[C@H](C)N6C(=O)[C@@H](NC(=O)OC)[C@@H]6CCCOC6)[nH]c54)cc2-3)[nH]1)C(C)C and report it.
Response given: 0.059

Challenge: Find the recorded EC50 belonging to COC(=O)N[C@H](C(=O)N1[C@@H](C)CC[C@H]1c1ncc(-c2ccc3c(c2)COc2cc4c(ccc5nc([C@@H]6CCCN6C(=O)[C@@H](NC(=O)OC)C6CCOCC6)[nH]c54)cc2-3)[nH]1)C(C)C [Comp 14, reference compound] and report it.
Response given: 0.053

Challenge: Find the recorded EC50 belonging to CC[C@H](C)[C@H](NC(=O)OC)C(=O)N1[C@@H](C)CC[C@H]1c1nc2ccc3cc4c(cc3c2[nH]1)OCc1cc(-c2cnc([C@@H]3CC[C@H](C)N3C(=O)[C@@H](NC(=O)OC)C3C[C@@H](C)O[C@H](C)C3)[nH]2)ccc1-4 (some centres unmarked) and report it.
Response given: 0.022

Challenge: Find the recorded EC50 belonging to CC[C@H](C)[C@H](NC(=O)OC)C(=O)N1[C@H](c2ncc(-c3ccc4c(c3)COc3cc5c(ccc6nc([C@@H]7CC[C@H](C)N7C(=O)[C@@H](NC(=O)OC)C7C[C@@H](C)O[C@H](C)C7)[nH]c65)cc3-4)[nH]2)C[C@@H]2CCC[C@@H]21 (some centres unmarked) and report it.
Response given: 0.045

Challenge: Find the recorded EC50 belonging to CC[C@H](C)[C@H](NC(=O)OC)C(=O)N1[C@@H](C)CC[C@H]1c1ncc(-c2ccc3c(c2)COc2cc4c(ccc5nc([C@@H]6CC[C@H](C)N6C(=O)[C@@H](NC(=O)OC)C6C[C@@H](C)O[C@H](C)C6)[nH]c54)cc2-3)[nH]1 (some centres unmarked) and report it.
Response given: 0.006

Challenge: Find the recorded EC50 belonging to COC(=O)N[C@H](C(=O)N1[C@@H](C)CC[C@H]1c1nc2ccc3cc4c(cc3c2[nH]1)OCc1cc(-c2cnc([C@@H]3CC[C@H](C)N3C(=O)[C@@H](NC(=O)OC)C3C[C@@H](C)O[C@H](C)C3)[nH]2)ccc1-4)C(C)C (some centres unmarked) and report it.
Response given: 0.015
